- EXPERIMENTAL TARGET: the molecule itself
- TEST DESCRIPTION: AUC
MEASURED METRIC: pKd
Conceptually, pKd converts a concentration in mol/L into minus its log10.

For the protein AsiA K20A mutant (natural protein, bacteriophage T4, UniProt P32267 1-90, looked up) MNKNIDTVREIITVASILIAFSREDIVENRANFIAFLNEIGVTHEGRKLNQNSFRKIVSELTQEDKKTLIDEFNEGFEGVYRYLEMYTNK , what pKd is on record?
6.32

Consider next the protein AsiA E39A mutant (natural protein, bacteriophage T4, UniProt P32267 1-90, looked up) MNKNIDTVREIITVASILIKFSREDIVENRANFIAFLNAIGVTHEGRKLNQNSFRKIVSELTQEDKKTLIDEFNEGFEGVYRYLEMYTNK in the same way.
6.74

Consider next the protein AsiA I17A mutant (natural protein, bacteriophage T4, UniProt P32267 1-90, looked up) MNKNIDTVREIITVASALIKFSREDIVENRANFIAFLNEIGVTHEGRKLNQNSFRKIVSELTQEDKKTLIDEFNEGFEGVYRYLEMYTNK in the same way.
5.31
